- Target Entity: IMP-1 (Serratia marcescens)
- Sequence (P52699 whole entry, looked up): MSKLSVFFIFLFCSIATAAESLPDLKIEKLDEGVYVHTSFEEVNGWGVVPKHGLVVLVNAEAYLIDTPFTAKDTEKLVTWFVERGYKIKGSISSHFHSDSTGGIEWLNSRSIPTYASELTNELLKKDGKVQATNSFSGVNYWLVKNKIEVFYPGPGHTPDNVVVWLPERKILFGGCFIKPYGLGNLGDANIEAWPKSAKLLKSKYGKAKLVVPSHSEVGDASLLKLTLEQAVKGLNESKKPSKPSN
- Procedure Text: biochemical
- Type: biochemical
- Particulars: fluorescence assay with CCF2-FA substrate; read-out: IMP-1 IC50
pIC50: −log10 of the molar value.
Quick rule for you: pIC50 at 7 or higher means y, lower means n.

Solved entries (count: 8):
[
  {
    "Compound": "NS(=O)(=O)c1nccc(-c2ccc3[nH]ncc3c2)c1-c1nn[nH]n1",
    "Classification": "n"
  },
  {
    "Compound": "NS(=O)(=O)c1cccc(-c2cccc(S(N)(=O)=O)c2-c2nnn[nH]2)c1",
    "Classification": "n"
  },
  {
    "Compound": "Cc1ccc(Oc2cccc(S(N)(=O)=O)c2-c2nn[nH]n2)cc1",
    "Classification": "n"
  },
  {
    "Compound": "NS(=O)(=O)c1c(C(F)(F)F)ccc(N2CCC3(CCNC3)CC2)c1-c1nnn[nH]1",
    "Classification": "y"
  },
  {
    "Compound": "NC(=O)c1ccc(-c2ccnc(S(N)(=O)=O)c2-c2nnn[nH]2)cc1",
    "Classification": "n"
  },
  {
    "Compound": "Cn1cncc1-c1cccc(S(N)(=O)=O)c1-c1nn[nH]n1",
    "Classification": "n"
  },
  {
    "Compound": "NS(=O)(=O)c1cccc(-c2ccc(C(=O)NC3CCOC3)cc2)c1-c1nn[nH]n1 (centres unmarked)",
    "Classification": "n"
  },
  {
    "Compound": "CS(=O)(=O)Nc1ccc(-c2cccc(S(N)(=O)=O)c2-c2nn[nH]n2)cc1",
    "Classification": "y"
  }
]

In plain terms: is recorded pIC50 at least 7 for `NCCCN1CC(c2ccc(-c3ccc(C(F)(F)F)c(S(N)(=O)=O)c3-c3nnn[nH]3)cc2)C1` ? y

# check: pIC50 of `NS(=O)(=O)c1cccc(-c2cccc3c2NCCC3)c1-c1nnn[nH]1` is greater than or equal to 7 n

Hi team, for `Nc1nc2c(-c3cccc(S(N)(=O)=O)c3-c3nnn[nH]3)cccc2s1` , is the recorded pIC50 at or above 7? y

Given `CN(C(=O)c1ccc(-c2cccc(S(N)(=O)=O)c2-c2nn[nH]n2)cc1)C1CCOCC1` , state whether its pIC50 is at least 7. y

Could you tell me if the measured pIC50 of `N=C(N)N1CCC2(CCC(c3ccc(C(F)(F)F)c(S(N)(=O)=O)c3-c3nnn[nH]3)CC2)CC1` reaches 7 or more? y

###

- Target Entity: NDM-1 (Klebsiella pneumoniae, UniProt C7C422)
- Sequence (C7C422 whole entry, looked up, species assumed): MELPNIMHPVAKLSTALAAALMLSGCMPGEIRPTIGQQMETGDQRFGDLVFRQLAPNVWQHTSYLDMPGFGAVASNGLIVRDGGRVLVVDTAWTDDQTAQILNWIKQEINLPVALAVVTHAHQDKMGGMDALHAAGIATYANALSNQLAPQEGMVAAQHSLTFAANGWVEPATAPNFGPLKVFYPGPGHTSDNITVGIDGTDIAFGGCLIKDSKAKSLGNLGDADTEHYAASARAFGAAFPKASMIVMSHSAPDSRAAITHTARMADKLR
- Procedure Text: biochemical
- Format: biochemical
- Particulars: NDM-1 enzyme, CCF2-FA substrate; read-out: NDM-1 IC50
# reported pIC50; entries follow
pIC50 here: minus log base 10 of the concentration, concentration in moles per litre.

Example entries and their recorded answers appear below.
[
  {
    "Molecule": "Nc1nc2ccc(-c3ccc(CC4CCNCC4)c(S(N)(=O)=O)c3-c3nn[nH]n3)cc2[nH]1",
    "Target Entity": "NDM-1 (Klebsiella pneumoniae, UniProt C7C422)",
    "pIC50": 8.53
  },
  {
    "Molecule": "NS(=O)(=O)c1c(C(F)(F)F)ccc([C@H]2CC[C@H](NC3CC4CNCCN4C3)CC2)c1-c1nnn[nH]1 (stereo partly shown)",
    "Target Entity": "NDM-1 (Klebsiella pneumoniae, UniProt C7C422)",
    "pIC50": 8.02
  },
  {
    "Molecule": "NS(=O)(=O)c1c(C(F)(F)F)ccc(-c2cnc3[nH]ccc3c2)c1-c1nnn[nH]1",
    "Target Entity": "NDM-1 (Klebsiella pneumoniae, UniProt C7C422)",
    "pIC50": 9.42
  },
  {
    "Molecule": "CN1CCC2(CCN(c3ccc(-c4cccc(S(N)(=O)=O)c4-c4nnn[nH]4)cn3)C2)C1 (stereo not shown)",
    "Target Entity": "NDM-1 (Klebsiella pneumoniae, UniProt C7C422)",
    "pIC50": 7.57
  },
  {
    "Molecule": "CC(C)(O)C1CN(c2ccc(-c3cccc(S(N)(=O)=O)c3-c3nnn[nH]3)cn2)C1",
    "Target Entity": "NDM-1 (Klebsiella pneumoniae, UniProt C7C422)",
    "pIC50": 7.99
  }
]

Please look up its pIC50: `NS(=O)(=O)c1c(C(F)(F)F)ccc(-c2cccc3cnccc23)c1-c1nn[nH]n1` 9.22

Quick one: pIC50 for `NC[C@H]1CC[C@@H](c2ccc(C(F)(F)F)c(S(N)(=O)=O)c2-c2nnn[nH]2)CC1` ? 8.45
